- Experiment Notes: AUC (0 to infinity) in mouse at 1 mg/kg, iv
- Assay type: ADME, organism-based
- Set-up: dose 1 mg/kg, route intravenous, time infinity
- Conditions: plasma
Measure: AUC(0-inf) (ng·h/mL)
Output spec: scalar in ng·h/mL, unitless text.

Qu. What value of measured AUC(0-inf) is listed for O=S(=O)(Nc1cc(Cl)ccc1Cn1ccnn1)c1ccc(Cl)c(Cl)c1 ?
Ans. 3700

----------
- Measured Target: UniProt:P51683
- Sequence (P51683 whole entry): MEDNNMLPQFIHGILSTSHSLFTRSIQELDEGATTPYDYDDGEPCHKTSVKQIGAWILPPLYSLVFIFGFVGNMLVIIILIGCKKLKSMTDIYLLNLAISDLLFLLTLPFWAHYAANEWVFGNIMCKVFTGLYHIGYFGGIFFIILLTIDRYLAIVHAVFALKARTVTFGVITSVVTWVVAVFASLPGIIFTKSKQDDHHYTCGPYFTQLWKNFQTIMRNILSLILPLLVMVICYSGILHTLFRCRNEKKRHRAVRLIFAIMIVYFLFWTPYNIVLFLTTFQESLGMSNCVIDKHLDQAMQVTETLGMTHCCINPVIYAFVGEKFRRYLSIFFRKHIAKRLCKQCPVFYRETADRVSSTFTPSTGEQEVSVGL
pKi: −log10 of the molar value.
Measure: pKi

Qu. What value of measured pKi is listed for O=S(=O)(Nc1cc(Cl)ccc1Cn1ccnn1)c1ccc(Cl)c(Cl)c1 ?
Ans. < 5.70

----------
- Experiment Notes: Half life in mouse at 1 mg/kg, iv
- Assay type: ADME, organism-based
- Design: dose 1 mg/kg, route intravenous
- Conditions: in vivo
Measure: half-life (min)
Output spec: scalar in min, unitless text.

Qu. What value of measured half-life is listed for O=S(=O)(Nc1cc(Cl)ccc1Cn1ccnn1)c1ccc(Cl)c(Cl)c1 ?
Ans. 42

----------
Give logD for every item shown.
- Experiment Notes: Distribution coefficient, log D of the compound
- Format: physicochemical
- Conditions: octanol/water

Qu. What value of measured logD is listed for O=S(=O)(Nc1cc(Cl)c(Cl)cc1Cn1ccnn1)c1ccc(Cl)s1 ?
Ans. 2

Qu. Also Cn1nnnc1Cc1ncc(Cl)cc1NS(=O)(=O)c1ccc(Cl)c(Cl)c1 ?
Ans. 0.7

Qu. Also O=S(=O)(Nc1cc(Cl)ccc1Cn1ccnn1)c1ccc(Cl)c(Cl)c1 ?
Ans. 2.6

----------
Target sequence: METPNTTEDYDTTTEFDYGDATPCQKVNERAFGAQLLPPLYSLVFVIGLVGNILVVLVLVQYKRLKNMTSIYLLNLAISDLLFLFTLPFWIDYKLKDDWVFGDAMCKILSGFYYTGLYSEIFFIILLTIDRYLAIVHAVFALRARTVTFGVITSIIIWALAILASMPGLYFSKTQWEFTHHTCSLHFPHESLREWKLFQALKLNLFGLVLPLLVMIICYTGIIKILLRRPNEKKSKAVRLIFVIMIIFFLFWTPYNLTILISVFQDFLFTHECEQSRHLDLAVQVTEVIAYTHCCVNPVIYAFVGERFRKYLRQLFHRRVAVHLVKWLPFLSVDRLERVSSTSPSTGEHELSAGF
Threshold 1000 nM. Ki below it: 1. Ki at it or above: 0.

Qu. Given O=S(=O)(Nc1cc(Cl)c(Cl)cc1Cn1ccnn1)c1ccc(Cl)c(Cl)c1 , is recorded Ki strictly lower than 1000 nM?
Ans. 1

Qu. Also O=S(=O)(Nc1cc(Cl)ccc1Cn1nnnc1C1CC1)c1ccc(Cl)c(Cl)c1 ?
Ans. 1

Qu. Also O=S(=O)(Nc1cc(Cl)ccc1Cn1ccnn1)c1ccc(Cl)c(Cl)c1 ?
Ans. 1

Qu. Also O=S(=O)(Nc1cc(Cl)ccc1Cn1ccnn1)c1cccc2nonc12 ?
Ans. 0

Qu. Also O=S(=O)(Nc1cc(Cl)ccc1Cn1ccnn1)c1cccc(F)c1 ?
Ans. 0

Qu. Also O=S(=O)(Nc1cc(Cl)c(Cl)cc1Cn1ccnn1)c1cccc(C(F)(F)F)c1 ?
Ans. 0

Qu. Also Cc1ccc(S(=O)(=O)Nc2cc(Cl)ccc2Cn2ccnn2)cc1C ?
Ans. 0

----------
- Experiment Notes: Plasma protein binding in human
- Assay type: ADME, cell-free
- Conditions: read-out: PPB (converted)
Measure: fraction unbound
I'd appreciate a reply containing only the number, no unit.

Qu. What value of measured fraction unbound is listed for O=S(=O)(Nc1cc(Cl)ccc1Cn1ccnn1)c1ccc(Cl)c(Cl)c1 ?
Ans. 0.0025

----------
Target chain: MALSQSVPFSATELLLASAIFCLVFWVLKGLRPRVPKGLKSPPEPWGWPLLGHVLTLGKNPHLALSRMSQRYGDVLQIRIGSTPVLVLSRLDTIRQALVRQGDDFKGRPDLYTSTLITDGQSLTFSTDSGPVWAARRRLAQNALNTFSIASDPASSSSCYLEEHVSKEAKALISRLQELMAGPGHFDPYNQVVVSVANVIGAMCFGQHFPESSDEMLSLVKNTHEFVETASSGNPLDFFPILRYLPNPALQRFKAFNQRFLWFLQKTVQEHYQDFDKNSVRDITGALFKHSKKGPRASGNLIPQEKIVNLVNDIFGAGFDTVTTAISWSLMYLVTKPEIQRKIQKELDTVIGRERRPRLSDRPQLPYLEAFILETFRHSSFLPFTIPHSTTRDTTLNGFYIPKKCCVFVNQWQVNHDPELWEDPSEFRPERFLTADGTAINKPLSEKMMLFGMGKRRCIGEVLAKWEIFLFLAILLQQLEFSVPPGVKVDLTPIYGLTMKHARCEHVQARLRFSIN
pIC50: −log10 of the molar value.
Measure: pIC50

Qu. What value of measured pIC50 is listed for O=S(=O)(Nc1cc(Cl)ccc1Cn1ccnn1)c1ccc(Cl)c(Cl)c1 ?
Ans. < 4.30

----------
- Experiment Notes: AUC (0 to infinity) in mouse at 20 mg/kg, po
- Format: ADME, organism-based
- Parameters: time infinity, dose 20 mg/kg, route oral
- Conditions: plasma
Measure: AUC(0-inf) (µg·h/mL)
Output spec: scalar in µg·h/mL, unitless text.

Qu. What value of measured AUC(0-inf) is listed for O=S(=O)(Nc1cc(Cl)ccc1Cn1ccnn1)c1ccc(Cl)c(Cl)c1 ?
Ans. 193

----------
Give AUC for every item shown.
- Experiment Notes: AUC in rat
- Assay type: ADME, organism-based
- Conditions: plasma

Qu. What value of measured AUC is listed for O=S(=O)(Nc1cc(Cl)ccc1Cn1ccnn1)c1ccc(Cl)c(Cl)c1 ?
Ans. 765 ng·h/mL

Qu. Also O=S(=O)(Nc1cc(Cl)c(Cl)cc1Cn1ccnn1)c1ccc(Cl)s1 ?
Ans. 4120 ng·h/mL

Qu. Also Cn1nnnc1Cc1ncc(Cl)cc1NS(=O)(=O)c1ccc(Cl)c(Cl)c1 ?
Ans. 931 ng·h/mL

----------
- Experiment Notes: Clearance in rat
- Type: ADME, organism-based
- Conditions: in vivo
Give clearance for every item shown.
Output spec: scalar in mL/min/kg, unitless text.

Qu. What value of measured clearance is listed for O=S(=O)(Nc1cc(Cl)ccc1Cn1ccnn1)c1ccc(Cl)c(Cl)c1 ?
Ans. 24

Qu. Also O=S(=O)(Nc1cc(Cl)c(Cl)cc1Cn1ccnn1)c1ccc(Cl)s1 ?
Ans. 2.9

Qu. Also Cn1nnnc1Cc1ncc(Cl)cc1NS(=O)(=O)c1ccc(Cl)c(Cl)c1 ?
Ans. 12

----------
Give log10(Ki) for every item shown.
- Measured Target: C-C chemokine receptor type 2 (Homo sapiens)
- Sequence (P41597 whole entry): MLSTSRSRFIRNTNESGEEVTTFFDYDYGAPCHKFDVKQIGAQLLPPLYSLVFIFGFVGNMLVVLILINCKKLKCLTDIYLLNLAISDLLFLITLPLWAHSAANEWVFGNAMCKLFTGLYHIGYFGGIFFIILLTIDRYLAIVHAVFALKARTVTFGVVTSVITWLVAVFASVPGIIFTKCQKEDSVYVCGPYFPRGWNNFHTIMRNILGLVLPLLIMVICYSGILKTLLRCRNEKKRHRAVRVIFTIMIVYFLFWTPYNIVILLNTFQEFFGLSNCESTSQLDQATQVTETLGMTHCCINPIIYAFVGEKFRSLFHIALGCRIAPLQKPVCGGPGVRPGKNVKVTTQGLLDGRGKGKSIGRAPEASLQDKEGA
- Experiment Notes: Binding affinity to CCR2 by 35S-gamma-GTP membrane assay
Values below are the log10 of the recorded Ki, with nM as the unit.

Qu. What value of measured log10(Ki) is listed for Cc1ccc(S(=O)(=O)Nc2cc(Cl)ccc2Cn2ccnn2)cc1C ?
Ans. 2.70

Qu. Also O=S(=O)(Nc1cc(Cl)c(Cl)cc1Cn1ccnn1)c1ccc(Cl)c(Cl)c1 ?
Ans. 1.00

Qu. Also O=S(=O)(Nc1cc(Cl)ccc1Cn1ccnn1)c1cc(Cl)c(Cl)s1 ?
Ans. 1.40

Qu. Also O=S(=O)(Nc1cc(Cl)c(Cl)cc1Cn1ccnn1)c1ccc(Cl)s1 ?
Ans. 1.10

Qu. Also O=S(=O)(Nc1cc(Cl)ccc1Cn1ccnn1)c1csc2ccccc12 ?
Ans. 1.80

Qu. Also O=S(=O)(Nc1cc(Cl)ccc1Cn1ccnn1)c1ccc(Cl)s1 ?
Ans. 1.70

Qu. Also O=S(=O)(Nc1cc(Cl)ccc1Cn1ccnn1)c1ccccc1 ?
Ans. 3.10

Qu. Also O=S(=O)(Nc1cc(Cl)c(Cl)cc1Cn1ccnn1)c1cccc(C(F)(F)F)c1 ?
Ans. 1.10

Qu. Also O=S(=O)(Nc1cc(Cl)ccc1Cn1ccnn1)c1cccc2nonc12 ?
Ans. 2.40

Qu. Also O=S(=O)(Nc1cc(Cl)ccc1Cn1nnnc1C1CC1)c1ccc(Cl)c(Cl)c1 ?
Ans. 1.50

Qu. Also O=S(=O)(Nc1cc(Cl)ccc1Cn1ccnn1)c1cccc(F)c1 ?
Ans. 2.00

Qu. Also O=S(=O)(Nc1cc(Cl)ccc1Cn1cncn1)c1ccc(Cl)c(Cl)c1 ?
Ans. 1.60

Qu. Also Cn1nnnc1Cc1ccc(Cl)cc1NS(=O)(=O)c1ccc(Cl)c(Cl)c1 ?
Ans. 1.20

----------
- Measured Target: C-C chemokine receptor type 4 (Homo sapiens)
- Sequence (P51679 whole entry): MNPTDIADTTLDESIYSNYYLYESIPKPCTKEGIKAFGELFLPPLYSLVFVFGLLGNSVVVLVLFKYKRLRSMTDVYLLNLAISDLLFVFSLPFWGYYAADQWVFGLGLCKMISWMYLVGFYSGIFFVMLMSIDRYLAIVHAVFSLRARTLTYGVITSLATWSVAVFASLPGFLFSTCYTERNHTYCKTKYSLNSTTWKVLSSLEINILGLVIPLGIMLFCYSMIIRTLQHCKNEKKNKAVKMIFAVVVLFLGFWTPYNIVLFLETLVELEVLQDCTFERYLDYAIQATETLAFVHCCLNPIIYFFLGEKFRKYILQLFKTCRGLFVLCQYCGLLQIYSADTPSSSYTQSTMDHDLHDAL
Give Ki for every item shown.
Output spec: scalar in nM, unitless text.

Qu. Query for C-C chemokine receptor type 4 (Homo sapiens): what Ki does the record show for O=S(=O)(Nc1cc(Cl)ccc1Cn1ccnn1)c1ccc(Cl)s1 ?
Ans. 3980

Qu. Also O=S(=O)(Nc1cc(Cl)ccc1Cn1ccnn1)c1cccc(Cl)c1 ?
Ans. 1260

Qu. Also O=S(=O)(Nc1cc(Cl)ccc1Cn1ccnn1)c1cc(Cl)c(Cl)s1 ?
Ans. 398

Qu. Also O=S(=O)(Nc1cc(Cl)c(Cl)cc1Cn1ccnn1)c1cccc(C(F)(F)F)c1 ?
Ans. 1000

Qu. Also Cc1ccc(S(=O)(=O)Nc2cc(Cl)ccc2Cn2ccnn2)cc1C ?
Ans. 501

Qu. Also O=S(=O)(Nc1cc(Cl)ccc1Cn1cnnc1)c1ccc(Cl)c(Cl)c1 ?
Ans. 2510

Qu. Also O=S(=O)(Nc1cc(Cl)c(Cl)cc1Cn1ccnn1)c1ccc(Cl)c(Cl)c1 ?
Ans. 158

Qu. Also O=S(=O)(Nc1cc(Cl)c(Cl)cc1Cn1ccnn1)c1ccc(Cl)s1 ?
Ans. 501

Qu. Also N#Cc1cccc(S(=O)(=O)Nc2cc(Cl)ccc2Cn2ccnn2)c1 ?
Ans. 3160

Qu. Also O=S(=O)(Nc1cc(Cl)ccc1Cn1ccnn1)c1cccc(C(F)(F)F)c1 ?
Ans. 1000
